Assay: Equilibrium fluorescence titration with Co(II)
Type: binding
Conditions: 1 µM apoprotein, 25 °C; read-out: Dissociation constant Kd, Co(II)
pKd: −log10 of the molar value.

[
  {
    "molecule": "L177A ALKBH3: ALKBH3 mutant, Leu177 replaced with Ala (protein, UniProt Q96Q83 1-286, looked up, variant L177A) Alpha-ketoglutarate-dependent …: MEEKRRRARVQGAWAAPVKSQAIAQPATTAKSHLHQKPGQTWKNKEHHLSDREFVFKEPQQVVRRAPEPRVIDREGVYEISLSPTGVSRVCLYPGFVDVKEADWILEQLCQDVPWKQRTGIREDITYQQPRLTAWYGELPYTYSRITMEPNPHWHPVLRTLKNRIEENTGHTFNSLACNLYRNEKDSVDWHSDDEPSLGRCPIIASLSFGATRTFEMRKKPPPEENGDYTYVERVKIPLDHGTLLIMEGATQADWQHRVPKEYHSREPRVNLTFRTVYPDPRGAPW",
    "pKd": 4.01
  }
]
